target: Hv1 F150A (Homo sapiens, UniProt Q96D96, F150A)
Sequence (Q96D96 whole entry F150A): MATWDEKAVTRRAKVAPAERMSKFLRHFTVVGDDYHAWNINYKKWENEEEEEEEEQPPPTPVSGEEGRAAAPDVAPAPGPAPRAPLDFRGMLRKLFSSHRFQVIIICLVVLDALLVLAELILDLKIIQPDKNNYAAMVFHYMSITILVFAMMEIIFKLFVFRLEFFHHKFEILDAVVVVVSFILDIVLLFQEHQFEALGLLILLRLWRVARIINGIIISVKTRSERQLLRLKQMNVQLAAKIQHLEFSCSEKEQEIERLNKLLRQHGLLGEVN
method notes: Inhibition of proton currents, inside-out patch clamp, Hv1 F150A
assay readout: IC50 (nM)
Answers are plain numbers, in nM.

Check out these entries, answers already filled in.
[
  {
    "compound": "Nc1nc2c(F)c(F)c(F)cc2[nH]1 [ABIF3]",
    "IC50 [nM]": 93
  },
  {
    "compound": "Nc1nc2ccccc2[nH]1 [ABI, 2-aminobenzimidazole]",
    "IC50 [nM]": 18
  },
  {
    "compound": "Nc1nc2cc(F)ccc2[nH]1 [ABIFβ, 6-fluoro-1H-1,3-benzodiazol-2-amine]",
    "IC50 [nM]": 13
  },
  {
    "compound": "Nc1nc2cc(F)c(F)cc2[nH]1 [ABIF2, 5,6-difluoro-1H-1,3-benzodiazol-2-amine]",
    "IC50 [nM]": 12
  }
]

Consider the additional compound presented here.
[in] Indicate its recorded IC50; the compound in question is Nc1nc2c(F)cccc2[nH]1 [ABIFα, 4-fluoro-1H-1,3-benzodiazol-2-amine]
[out] 40
